- Target System: T1, Cre recombinase monomer with Q311R mutation
- T1 chain: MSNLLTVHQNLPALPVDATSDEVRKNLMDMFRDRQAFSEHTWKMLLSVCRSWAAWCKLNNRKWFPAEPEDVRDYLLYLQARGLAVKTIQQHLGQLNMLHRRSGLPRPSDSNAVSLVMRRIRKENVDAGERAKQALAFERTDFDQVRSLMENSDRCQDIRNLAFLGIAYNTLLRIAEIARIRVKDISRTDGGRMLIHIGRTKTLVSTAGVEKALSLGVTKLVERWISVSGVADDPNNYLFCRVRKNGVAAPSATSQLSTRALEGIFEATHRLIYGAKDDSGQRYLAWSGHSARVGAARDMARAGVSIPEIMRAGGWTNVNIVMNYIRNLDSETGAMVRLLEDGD
Measurement Name: Median dimer activity (recombination on loxP) (%)

[[record]]
protein = "Cre recombinase monomer with R292I mutation (protein) MSNLLTVHQNLPALPVDATSDEVRKNLMDMFRDRQAFSEHTWKMLLSVCRSWAAWCKLNNRKWFPAEPEDVRDYLLYLQARGLAVKTIQQHLGQLNMLHRRSGLPRPSDSNAVSLVMRRIRKENVDAGERAKQALAFERTDFDQVRSLMENSDRCQDIRNLAFLGIAYNTLLRIAEIARIRVKDISRTDGGRMLIHIGRTKTLVSTAGVEKALSLGVTKLVERWISVSGVADDPNNYLFCRVRKNGVAAPSATSQLSTRALEGIFEATHRLIYGAKDDSGQRYLAWSGHSAIVGAARDMARAGVSIPEIMQAGGWTNVNIVMNYIRNLDSETGAMVRLLEDGD"
value = 97

[[record]]
protein = "Cre recombinase monomer with E176I mutation (protein) MSNLLTVHQNLPALPVDATSDEVRKNLMDMFRDRQAFSEHTWKMLLSVCRSWAAWCKLNNRKWFPAEPEDVRDYLLYLQARGLAVKTIQQHLGQLNMLHRRSGLPRPSDSNAVSLVMRRIRKENVDAGERAKQALAFERTDFDQVRSLMENSDRCQDIRNLAFLGIAYNTLLRIAIIARIRVKDISRTDGGRMLIHIGRTKTLVSTAGVEKALSLGVTKLVERWISVSGVADDPNNYLFCRVRKNGVAAPSATSQLSTRALEGIFEATHRLIYGAKDDSGQRYLAWSGHSARVGAARDMARAGVSIPEIMQAGGWTNVNIVMNYIRNLDSETGAMVRLLEDGD"
value = 36

